measured_on: Telomerase reverse transcriptase (Homo sapiens)
Sequence (O14746 whole entry): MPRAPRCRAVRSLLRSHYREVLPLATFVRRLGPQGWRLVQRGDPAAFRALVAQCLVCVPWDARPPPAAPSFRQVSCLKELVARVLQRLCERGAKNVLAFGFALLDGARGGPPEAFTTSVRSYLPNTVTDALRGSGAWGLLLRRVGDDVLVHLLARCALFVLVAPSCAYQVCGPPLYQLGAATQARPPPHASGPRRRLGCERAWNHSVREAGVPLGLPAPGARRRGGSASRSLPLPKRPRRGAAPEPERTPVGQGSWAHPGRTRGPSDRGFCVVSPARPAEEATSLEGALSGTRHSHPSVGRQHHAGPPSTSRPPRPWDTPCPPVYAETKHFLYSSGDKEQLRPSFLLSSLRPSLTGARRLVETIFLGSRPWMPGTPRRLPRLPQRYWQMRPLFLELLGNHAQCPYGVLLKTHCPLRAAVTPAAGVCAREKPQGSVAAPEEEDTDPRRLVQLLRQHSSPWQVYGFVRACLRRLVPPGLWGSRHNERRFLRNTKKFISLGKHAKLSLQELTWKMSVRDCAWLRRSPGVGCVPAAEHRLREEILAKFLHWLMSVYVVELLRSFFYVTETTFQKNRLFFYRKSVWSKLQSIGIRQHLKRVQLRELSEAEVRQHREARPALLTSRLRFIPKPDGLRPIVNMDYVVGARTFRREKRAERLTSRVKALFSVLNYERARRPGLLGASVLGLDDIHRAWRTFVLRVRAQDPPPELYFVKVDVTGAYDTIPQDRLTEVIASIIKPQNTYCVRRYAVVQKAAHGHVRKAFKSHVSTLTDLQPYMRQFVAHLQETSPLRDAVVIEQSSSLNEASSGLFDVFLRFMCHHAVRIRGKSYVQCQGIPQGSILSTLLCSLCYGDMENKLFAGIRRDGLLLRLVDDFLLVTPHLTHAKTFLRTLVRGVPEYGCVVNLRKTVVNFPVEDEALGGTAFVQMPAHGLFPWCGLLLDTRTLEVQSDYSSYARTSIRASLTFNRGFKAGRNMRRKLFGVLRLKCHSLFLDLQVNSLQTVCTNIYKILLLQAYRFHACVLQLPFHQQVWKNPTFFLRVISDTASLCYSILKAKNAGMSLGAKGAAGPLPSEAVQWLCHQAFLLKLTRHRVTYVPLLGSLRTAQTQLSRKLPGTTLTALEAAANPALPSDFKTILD
assay_summary: Effect on human TERT expressed in H1299 cells at 10 uM after 24 hrs by SEAP assay relative to control
Would you mind labelling by residual activity? At or over 40% is y, under is n.

Asked: Assess whether reported residual activity for O=C(CCCl)Nc1ccc2c(c1)C(=O)c1cc(NC(=O)CCCl)ccc1C2=O sits at 40% or higher.
Given back: y

Asked: Assess whether reported residual activity for CCNCC(=O)Nc1ccc2c(c1)C(=O)c1cc(NC(=O)CNCC)ccc1C2=O sits at 40% or higher.
Given back: n

Asked: Assess whether reported residual activity for O=C(CN1CCNCC1)Nc1ccc2c(c1)C(=O)c1cc(NC(=O)CN3CCNCC3)ccc1C2=O sits at 40% or higher.
Given back: y

Asked: Assess whether reported residual activity for CCC(=O)Nc1ccc2c(c1)C(=O)c1cc(NC(=O)CC)ccc1C2=O sits at 40% or higher.
Given back: y

Asked: Assess whether reported residual activity for CC(=O)Nc1ccc2c(c1)C(=O)c1cc(NC(C)=O)ccc1C2=O sits at 40% or higher.
Given back: y

Asked: Assess whether reported residual activity for O=C(CCN1CCCC1)Nc1ccc2c(c1)C(=O)c1cc(NC(=O)CCN3CCCC3)ccc1C2=O sits at 40% or higher.
Given back: n

Asked: Assess whether reported residual activity for CCCCNCCC(=O)Nc1ccc2c(c1)C(=O)c1cc(NC(=O)CCNCCCC)ccc1C2=O sits at 40% or higher.
Given back: n

Asked: Assess whether reported residual activity for O=C(CCN1CCCCC1)Nc1ccc2c(c1)C(=O)c1cc(NC(=O)CCN3CCCCC3)ccc1C2=O sits at 40% or higher.
Given back: n

Asked: Assess whether reported residual activity for CCCCNCC(=O)Nc1ccc2c(c1)C(=O)c1cc(NC(=O)CNCCCC)ccc1C2=O sits at 40% or higher.
Given back: n

Asked: Assess whether reported residual activity for Nc1ccc2c(c1)C(=O)c1cc(N)ccc1C2=O sits at 40% or higher.
Given back: y
